test system: MS2 coat protein; experiment: apparent KD of MS2 coat protein; designed switch direction (-1 OFF switch, 1 ON switch): -1; higher = weaker reporter binding; conditions: input ligand: none
Short version: apparent KD of MS2 coat protein at least 30 nM is true, less is false.

primary sequence	assigned label
AAGAACCCGGUAGGAUAUAUUGUGGGCAAACAUGGAACAACAUGAGGAUCACCCAUGUAAUUUAGGUAGAAGGGCCAAAAGAGA [Default title] (Eterna round: R96, puzzle: Exclusion NG 2)	true
GUCAGCUCGUCAGGAUAUACAUGAGGAUCACCCAUGUGAUCAAUAGCAGCUUCGGCUGCAAUAAUGUAGAAGGGACGAGCUGAC [ENG2/8-F] (Eterna round: R96, puzzle: Exclusion NG 2)	true
AAUAAGCGAGGAUAUACUAUUCCUCGACCGGCAGAAACCGGACUUGAGGAUCACCCAAGUAGAAGGCGCAAAAC [Oninso] (Eterna round: R97, puzzle: Exclusion 2)	true
AGCUAGUGCCGAGGAUAUACAUGAGGAUCACCCAUGUAAGCCAGUCGGUUUCUGACUGGCAAUAUGUAGAAGGCGGCGUUGGCA [JL ENG2 1.49] (Eterna round: R96, puzzle: Exclusion NG 2)	false
UUAUUAUAUGUAGGAUAUGCGUAUUAUUGUUAUGCAGAAGGACAUGAGGAUCACCCAUGUAUAUUAUUGUUAUAUAUUGUAUAU [Title] (Eterna round: R96, puzzle: Exclusion NG 1)	false

Confirm if apparent KD of MS2 coat protein reported for the sequence GCACGGAGUGUAGGAUAUCUGUGCGAUUAGCUCAGAGAAGGACACAUGAGGAUCACCCAUGUGUUCCACGGAAACGUACCGUGC [Eli exng1 - 050] (Eterna round: R96, puzzle: Exclusion NG 1) is 30 nM or above.
false

Confirm if apparent KD of MS2 coat protein reported for the sequence UUGUGCACGCUGCGAUCCUACAUGAGGAUCACCCAUGUGGUCUGGUGGCGUGGGUCACCGGACUUGGCUCGUCUUGA [salish99_S_TOV1_R5_068] (Eterna round: R97, puzzle: Sensor, turn-off variant 1) is 30 nM or above.
true

Confirm if apparent KD of MS2 coat protein reported for the sequence AAAUAGCGAGGAUAUACUGUAUACGAAAGUAUACGCAUGGCACAUGAGGAUCACCCAUGUAGAAGGCGCUAUAA (Eterna round: R97, puzzle: Exclusion 2) is 30 nM or above.
false

Confirm if apparent KD of MS2 coat protein reported for the sequence GUGACCAUAGGAUAUACAUGAGGAUCACCCAUGUGCAGGCCGAAAGACCUGCGGUCAUGUAGAAGGAUGUAAUU [EX3 A.17] (Eterna round: R97, puzzle: Exclusion 3) is 30 nM or above.
false

Confirm if apparent KD of MS2 coat protein reported for the sequence AGCCAAGCAGGAUAUACCCGGGAUAACAUGAGGAUCACCCAUGUGACCGAUUGAUGUCCUGUAGAAGGGCUUGGGA [Mod of ViennaUCT 21 - Jieux - Exclusion 5] (Eterna round: R97, puzzle: Exclusion 5) is 30 nM or above.
false

###

tested on: MS2 coat protein; assay: apparent KD of MS2 coat protein; designed switch direction (-1 OFF switch, 1 ON switch): -1; higher = weaker reporter binding; conditions: input ligand: FMN 200 uM
Short version: apparent KD of MS2 coat protein at least 0.06 µM is t, less is f.

primary sequence	assigned label
UGUUUACAUGAGGAUCACCCAUGUCAGGAUAUGAUCGAUAUAUGGAAACAUAUAUCGAUCAGAAGGGACUAGUG [Jieuxxlusion 2 - Jieux - Exclusion 1] (Eterna round: R97, puzzle: Exclusion 1)	t
GCUGGUCAAGGAUAUAUAUGACGUGCUUCGGCACGAAGGUCACAUGAGGAUCACCCAUGUAGAAGGUGACCAGC [E2/9-C1] (Eterna round: R97, puzzle: Exclusion 2)	t
CUGUGAUGAGGAUAUACAUGAGGAUCACCCAUGUGUCCUCUGAUGGGUAGGGACCCUGGUAGAAGGCAUUGAGA [Eternabot (L1) Solution 52] (Eterna round: R97, puzzle: Exclusion 3)	f

Now for another entry.
Confirm if apparent KD of MS2 coat protein reported for the sequence CUGCUCCGUGUAGGAUAUGCGCGCAACCAACGCGCAGAAGGACAUGAGGAUCACCCAUGUAUGUUAUUAUCACGUGAAGCGUCC [Design 30] (Eterna round: R96, puzzle: Exclusion NG 1) is 0.06 µM or above.
f

###

system: K4 kissing-loop RNA reporter; assay: apparent KD of K4 kissing-loop reporter; higher = weaker reporter binding; conditions: Eterna round: R107; input ligand: theophylline 20 uM
recorded metric: apparent KD of K4 kissing-loop reporter (nM)
Answer in nM, number only, no unit symbol.

Illustrative cases are given below, each with its answer.
primary sequence	units label	value reported
GAUUAAUAAGAGGAUACCAGUACAAAUAAAGUACAUUAAUAGUAGAGUGAUGUUCUAAAGUACCCUUGGCAGCUUAGAGUAAGUU [ExTheophylB.A]	nM	226
UGGUUUAACUGAAGGAGCGGCAAUUGAUAAGUAGAUAUAGUGAUGUUAUAUAAGAUAGAGAGCCAGGUAGGUCGCAGAGGUGUUU [ExArgB.Q]	nM	253
CACUGGGCGAGUGAUGUUCGCUCACGUGAUACCAGUGCCAUCCAACACCCUUGGCAGCAUGCGGGCAGUGAUGUUGUCCAAAGAA [Exclusion Theophylline A GF9]	nM	208
AAUUUAUUAUCUGAUACCAGACUUUUUCUUGUAUAUAAGUCAAGUGAUGUUUGACUUUUAGUCCCUUGGCAGCAGUAUUUUUUAA [JR_Nu_SSTheophyB_Sub027]	nM	123

Report apparent KD of K4 kissing-loop reporter, nothing else, for this sequence: UAAAUAAAAUCCUAGUGAUGUUAGGAUAUGUAGGAUAUCGGGAUACCGAGAAGGACAGAAGGAGGAGUGAUGUUCCUCAAUAAAU [FmnAX 30 #DoubleAptamer #DoubleK4 #OpenEnded]
74.5

Report apparent KD of K4 kissing-loop reporter, nothing else, for this sequence: AUACGCGAUAGCGUAUAUAACUUUUCAGAAGGAGCGUGGAAGUACACAGGUAGGUCGCUGAAUAUAGGACUAGUGAUGUUAGUUA [JR_Nu_SSArginiA_Sub025]
218

Report apparent KD of K4 kissing-loop reporter, nothing else, for this sequence: CAUAGGAAACUAUGUAUCUCUCUUACUGAAGGAGCGCGUGAAAACGCAGGUAGGUCGCAGAAUUUAAAAGAGAGUGAUGUUCUCU [Ex Arginine A K4 8]
247

###

Parameter: apparent KD of MS2 coat protein. Scope: all listed entries.
test system: MS2 coat protein; assay: apparent KD of MS2 coat protein; designed switch direction (-1 OFF switch, 1 ON switch): 1; higher = weaker reporter binding; settings: input ligand: microRNA oligo, concentration not stated
Could you kindly put the unit after your number?

Illustrative cases are given below, each with its answer.
primary sequence	apparent KD of MS2 coat protein
AGCUAGUACCGAGGAUAUACGUACAUGAGGAUCACCCAUGUAUACAUGAUUAAAUGAGACUACAUGUAGAAGGCGGUACUAGCA [Mat - Same State NG 2 - JL mod - D48] (Eterna round: R96, puzzle: Same State NG 2)	27.1 nM
GGAAUGUGAUGUUACAUGAGGAUCACCCAUGUAGUGACAACUAAGGAUAUCUGAAAAGAAGGAGAGGAGAAGGUAGGAUCACAA [AK SSNG3-V2-15] (Eterna round: R96, puzzle: Same State NG 3)	39.2 nM
GCUACCAAAGAAGCCAACAUGAGGAUCACCCAUGUAUGUUGGCAGGAUAUCGAUUGCAAAGCGAUCGAGAAGGGCUAAGGUAGC [Mat - Same State NG 3 - JL Mod - D88] (Eterna round: R96, puzzle: Same State NG 3)	214 nM

Okay, next one:
Report apparent KD of MS2 coat protein, nothing else, for this sequence: GUGGUCAGACAUGAGGAUCACCCAUGUGGAAUAAAUAACAGACAGGAUAUGUAAUAUAAAAUAUAACAGAAGGGUCGAUUGGUG (Eterna round: R96, puzzle: Same State NG 3)
64.7 nM

###

system: K4 kissing-loop RNA reporter; assay: apparent KD of K4 kissing-loop reporter; higher = weaker reporter binding; conditions: Eterna round: R107; input ligand: theophylline 20 uM;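 further: bound reporter read as fluorescence of individual clusters on recovered sequencing chips by microscopy, with normalized cluster intensities fitted with a binding model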
Parameter: apparent KD of K4 kissing-loop reporter. Scope: all listed entries.

Illustrative cases are given below, each with its answer.
primary sequence	apparent KD of K4 kissing-loop reporter
AAUUUAGUGACGGCCGCCACUAGGGUGAUUUAUUUGUUUGAGUGAUGUUUUGAUGUUUGAUUUUGUAGGACCGGGUUAGGUGAUG [dddcmullin]	326 nM
UAAGACAUGAAAGGAUAUCCGAUAUGGAGCCUUUAGUGAUGUUAGGAGCUAGCCGUAGACAAGAUCGGAGAAGGUUCAACCCACA [theeternabot_sameState_KL_FMN_B_13]	705 nM

Okay, next one:
Report apparent KD of K4 kissing-loop reporter, nothing else, for this sequence: UGACUGGACUGAAGGAGCGAGCGAGACAAAGUCUCGAAAAUUCAGUGAUGUUGAUAUAUAACUCAGGUAGGUCGCAGUCUAGUCU [ArgBS 5 #SwitchBubble #StaticStem]
464 nM
